Origin of values: patent US20240424112A1

The reader will find reported % Mean Degradation of BRD4 values listed item by item below.
TEST TARGET: BRD4 short isoform (Homo sapiens, UniProt O60885)
Construct: endogenous in cells; host or cells: MDA-MB-468
TEST NAME: BRD4 degradation assay (Western blot, MDA-MB-468 cells), short isoform
Assay type: cell-based
DETAILS: 48 h, 0.1 μM, MDA-MB-468, n = 2
# output: bare number, implied unit %

Would you please look over these solved cases?
# COMPOUND, READING UNIT, % Mean Degradation of BRD4
measured = [
    ("Cc1sc2c(c1C)C(c1ccc(Cl)cc1)=N[C@@H](CC(=O)NCCOCCOCCNC(=O)[C@@]1(C)CCCC[C@H]1C(=O)N1CCc3c(Cl)ccc(OCc4nnn(C)c4C)c3[C@H]1CN1CC3(CC3)CC1=O)c1nnc(C)n1-2 [Comparative Example 3, reference compound]", "%", 23),
    ("Cc1sc2c(c1C)C(c1ccc(Cl)cc1)=N[C@@H](CC(=O)NCC(=O)NCCNC(=O)[C@@]1(C)CCCC[C@H]1C(=O)N1CCc3c(Cl)ccc(OCc4nnn(C)c4C)c3[C@H]1CN1CC3(CC3)CC1=O)c1nnc(C)n1-2 [Comparative Example 1, reference compound]", "%", "−11"),
]

// query Tell me the measured % Mean Degradation of BRD4 of Cc1sc2c(c1C)C(c1ccc(Cl)cc1)=N[C@@H](CC(=O)NCCC(=O)NCCOCc1c(COc3ccc(Cl)c4c3[C@@H](CN3CC5(CC5)CC3=O)N(C(=O)[C@@H]3CCCC[C@]3(C)C(=O)O)CC4)nnn1C)c1nnc(C)n1-2 [Example 4] , please.
// result −2

// query Using the record for CNC(=O)[C@@]1(C)CCCC[C@H]1C(=O)N1CCc2c(Cl)ccc(OCc3nnn(CCNC(=O)CNC(=O)C[C@@H]4N=C(c5ccc(Cl)cc5)c5c(sc(C)c5C)-n5c(C)nnc54)c3C)c2[C@H]1CN1CC2(CC2)CC1=O [Example 2] , report its % Mean Degradation of BRD4.
// result 71

* * *

TEST TARGET: BRD4 long isoform (Homo sapiens, UniProt O60885)
Construct: endogenous in cells; host or cells: MDA-MB-468
TEST NAME: BRD4 degradation assay (Western blot, MDA-MB-468 cells), long isoform
Assay type: cell-based
DETAILS: 48 h, 0.1 μM, MDA-MB-468, n = 2
Entries and their measured % Mean Degradation of BRD4 follow.

# MOLECULE, PROPERTY, DATA VALUE
data = [
    ("CNC(=O)[C@@]1(C)CCCC[C@H]1C(=O)N1CCc2c(Cl)ccc(OCc3nnn(CCNC(=O)CNC(=O)C[C@@H]4N=C(c5ccc(Cl)cc5)c5c(sc(C)c5C)-n5c(C)nnc54)c3C)c2[C@H]1CN1CC2(CC2)CC1=O", "% Mean Degradation of BRD4", "78%"),
]

// query Write down the reported % Mean Degradation of BRD4 of Cc1sc2c(c1C)C(c1ccc(Cl)cc1)=N[C@@H](CC(=O)NCC(=O)NCCOCc1c(COc3ccc(Cl)c4c3[C@@H](CN3CC5(CC5)CC3=O)N(C(=O)[C@@H]3CCCC[C@]3(C)C(=O)O)CC4)nnn1C)c1nnc(C)n1-2 , test system: BRD4 long isoform (Homo sapiens, UniProt O60885).
// result 14%

// query Quick check: % Mean Degradation of BRD4 on BRD4 long isoform (Homo sapiens, UniProt O60885), item Cc1sc2c(c1C)C(c1ccc(Cl)cc1)=N[C@@H](CC(=O)NCCOCCOCCNC(=O)[C@@]1(C)CCCC[C@H]1C(=O)N1CCc3c(Cl)ccc(OCc4nnn(C)c4C)c3[C@H]1CN1CC3(CC3)CC1=O)c1nnc(C)n1-2 [Comparative Example 3, reference compound] ?
// result 13%

// query Form entry - test system: BRD4 long isoform (Homo sapiens, UniProt O60885); read-out: % Mean Degradation of BRD4; molecule: Cc1sc2c(c1C)C(c1ccc(Cl)cc1)=N[C@@H](CC(=O)NCC(=O)NCCn1nnc(COc3ccc(Cl)c4c3[C@@H](CN3CC5(CC5)CC3=O)N(C(=O)[C@@H]3CCCC[C@]3(C)C(=O)O)CC4)c1C)c1nnc(C)n1-2
// result 97%
